Target: T1, human LAG3 expressed on cells (human, UniProt P18627 23-525)
T1 construct: whole, on cells
T1 sequence (looked up): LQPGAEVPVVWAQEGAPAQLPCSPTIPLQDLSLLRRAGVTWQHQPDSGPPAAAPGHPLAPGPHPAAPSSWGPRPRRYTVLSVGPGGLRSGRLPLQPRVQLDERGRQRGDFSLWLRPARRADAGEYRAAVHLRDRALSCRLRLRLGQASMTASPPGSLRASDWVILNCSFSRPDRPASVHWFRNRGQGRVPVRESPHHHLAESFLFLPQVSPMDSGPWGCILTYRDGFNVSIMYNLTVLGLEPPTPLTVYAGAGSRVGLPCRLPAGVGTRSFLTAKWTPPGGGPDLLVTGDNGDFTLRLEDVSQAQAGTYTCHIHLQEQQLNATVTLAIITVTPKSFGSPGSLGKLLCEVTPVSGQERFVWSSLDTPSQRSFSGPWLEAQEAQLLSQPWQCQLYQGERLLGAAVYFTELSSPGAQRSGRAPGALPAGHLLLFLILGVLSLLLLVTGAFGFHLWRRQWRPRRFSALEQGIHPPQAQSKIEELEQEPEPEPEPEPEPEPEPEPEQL
Assay: FACS, 293T-hLAG3 cells
measuredAttribute: EC50 (nM)
Express your answer in nM, writing the number without its unit.

Some solved entries appear below for comparison.
binder="sdAb No. 25-B7 (VHH, Humanized sdAb No. 25; not shown: Fc part implied by anti-human IgG Fc detection) VHH: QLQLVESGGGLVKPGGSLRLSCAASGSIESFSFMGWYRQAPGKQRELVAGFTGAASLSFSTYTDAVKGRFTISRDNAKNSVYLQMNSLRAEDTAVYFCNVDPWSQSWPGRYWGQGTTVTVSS" measuredattribute=EC50 unitlabel=nM reportedvalue=0.6
binder="sdAb No. 27-H1B3 (VHH, Humanized sdAb No. 27-H1; not shown: Fc part implied by anti-human IgG Fc detection) VHH: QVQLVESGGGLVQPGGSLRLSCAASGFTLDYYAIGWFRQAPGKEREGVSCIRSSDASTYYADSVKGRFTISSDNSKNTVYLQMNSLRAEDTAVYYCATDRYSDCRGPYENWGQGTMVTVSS" measuredattribute=EC50 unitlabel=nM reportedvalue=1.18
binder="sdAb No. 27 (VHH, Fc of the tested form not described; also called sdAb 27; not shown: Fc part implied by anti-human Fc capture and anti-human IgG Fc detection) VHH: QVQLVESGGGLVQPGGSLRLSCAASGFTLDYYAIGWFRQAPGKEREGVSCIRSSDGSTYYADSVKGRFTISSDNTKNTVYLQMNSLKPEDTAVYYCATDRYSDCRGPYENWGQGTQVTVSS" measuredattribute=EC50 unitlabel=nM reportedvalue=1.77

// next item, EC50 requested
GET /values?readout=EC50&item= sdAb No. 25 (VHH, Fc of the tested form not described; also called sdAb 25; sdAb #25; not shown: Fc part implied by anti-human Fc capture and anti-human IgG Fc detection) VHH: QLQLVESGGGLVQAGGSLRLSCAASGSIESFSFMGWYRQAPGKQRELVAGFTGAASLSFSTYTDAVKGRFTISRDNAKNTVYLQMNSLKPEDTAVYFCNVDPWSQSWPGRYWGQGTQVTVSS
1.48
